Biological target: Neuronal acetylcholine receptor; alpha4/beta2 (Homo sapiens, UniProt P17787+P43681)
Sequence (P17787 whole entry): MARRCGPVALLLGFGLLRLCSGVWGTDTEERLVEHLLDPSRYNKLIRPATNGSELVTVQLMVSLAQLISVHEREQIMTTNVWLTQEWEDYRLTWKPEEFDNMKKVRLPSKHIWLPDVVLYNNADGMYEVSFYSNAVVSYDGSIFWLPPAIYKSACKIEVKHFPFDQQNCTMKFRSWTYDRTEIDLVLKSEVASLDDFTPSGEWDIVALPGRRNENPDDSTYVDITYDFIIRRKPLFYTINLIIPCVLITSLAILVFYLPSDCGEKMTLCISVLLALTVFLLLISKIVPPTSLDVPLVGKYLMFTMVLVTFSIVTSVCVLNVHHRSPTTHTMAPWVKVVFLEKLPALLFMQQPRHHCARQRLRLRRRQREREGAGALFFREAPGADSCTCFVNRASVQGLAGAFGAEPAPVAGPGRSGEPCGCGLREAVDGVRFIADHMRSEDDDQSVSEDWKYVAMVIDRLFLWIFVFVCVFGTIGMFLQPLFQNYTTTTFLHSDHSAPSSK
Sequence (P43681 whole entry): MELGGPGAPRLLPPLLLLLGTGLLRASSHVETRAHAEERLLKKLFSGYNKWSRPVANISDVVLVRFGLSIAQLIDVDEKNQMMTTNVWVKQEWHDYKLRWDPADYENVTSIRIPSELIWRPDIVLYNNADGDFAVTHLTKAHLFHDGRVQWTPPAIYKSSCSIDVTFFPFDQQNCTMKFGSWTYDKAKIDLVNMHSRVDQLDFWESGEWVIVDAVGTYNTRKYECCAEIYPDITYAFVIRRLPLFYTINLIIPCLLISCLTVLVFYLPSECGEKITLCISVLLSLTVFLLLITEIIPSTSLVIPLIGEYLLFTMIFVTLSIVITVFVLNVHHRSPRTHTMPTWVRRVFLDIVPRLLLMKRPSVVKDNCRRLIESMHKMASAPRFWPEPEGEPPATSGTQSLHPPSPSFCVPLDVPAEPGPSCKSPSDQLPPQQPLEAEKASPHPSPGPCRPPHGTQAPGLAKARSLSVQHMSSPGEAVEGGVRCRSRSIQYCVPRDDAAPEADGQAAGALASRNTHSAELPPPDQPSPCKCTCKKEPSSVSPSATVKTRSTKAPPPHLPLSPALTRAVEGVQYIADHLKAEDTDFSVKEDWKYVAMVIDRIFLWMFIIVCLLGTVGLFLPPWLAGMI
Test: Negative allosteric modulation of human nAChR alpha4beta2 expressed in HEK ts201 cells assessed as decrease in epibatidine-induced calcium mobilization up to 100 uM measured every 1.5 sec by fluorescence analysis
Format: cell-based
In this section, each of the compounds is paired with its reported IC50.
assay_readout: IC50

{"chemical_string": "O=C(CN1CCN(S(=O)(=O)c2ccccc2F)CC1)Nc1ccc(C(=O)O)cc1", "endpoint_result": "> 100 µM"}
{"chemical_string": "COc1ccc(NC(=O)CN2CCN(S(=O)(=O)c3cccnc3)CC2)cc1", "endpoint_result": "> 100 µM"}
{"chemical_string": "O=C(CN1CCN(S(=O)(=O)c2ccccc2F)CC1)Nc1ccn[nH]1", "endpoint_result": "> 100 µM"}

###

Target: Neuronal acetylcholine receptor; alpha3/beta4 (Homo sapiens, UniProt P30926+P32297)
Sequence (P30926 whole entry): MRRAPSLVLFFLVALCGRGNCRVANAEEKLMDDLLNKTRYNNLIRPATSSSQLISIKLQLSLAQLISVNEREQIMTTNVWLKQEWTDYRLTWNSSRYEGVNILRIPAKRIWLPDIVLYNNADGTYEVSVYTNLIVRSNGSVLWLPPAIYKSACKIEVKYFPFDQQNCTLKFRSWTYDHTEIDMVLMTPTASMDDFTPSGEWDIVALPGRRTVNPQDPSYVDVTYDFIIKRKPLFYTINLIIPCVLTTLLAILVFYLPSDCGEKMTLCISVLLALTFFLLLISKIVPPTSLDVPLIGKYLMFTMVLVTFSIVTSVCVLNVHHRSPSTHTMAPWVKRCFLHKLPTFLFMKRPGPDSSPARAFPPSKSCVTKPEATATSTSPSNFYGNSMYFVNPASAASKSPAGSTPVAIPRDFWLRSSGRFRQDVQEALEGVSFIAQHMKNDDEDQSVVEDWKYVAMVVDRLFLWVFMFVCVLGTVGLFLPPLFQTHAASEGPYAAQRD
Sequence (P32297 whole entry): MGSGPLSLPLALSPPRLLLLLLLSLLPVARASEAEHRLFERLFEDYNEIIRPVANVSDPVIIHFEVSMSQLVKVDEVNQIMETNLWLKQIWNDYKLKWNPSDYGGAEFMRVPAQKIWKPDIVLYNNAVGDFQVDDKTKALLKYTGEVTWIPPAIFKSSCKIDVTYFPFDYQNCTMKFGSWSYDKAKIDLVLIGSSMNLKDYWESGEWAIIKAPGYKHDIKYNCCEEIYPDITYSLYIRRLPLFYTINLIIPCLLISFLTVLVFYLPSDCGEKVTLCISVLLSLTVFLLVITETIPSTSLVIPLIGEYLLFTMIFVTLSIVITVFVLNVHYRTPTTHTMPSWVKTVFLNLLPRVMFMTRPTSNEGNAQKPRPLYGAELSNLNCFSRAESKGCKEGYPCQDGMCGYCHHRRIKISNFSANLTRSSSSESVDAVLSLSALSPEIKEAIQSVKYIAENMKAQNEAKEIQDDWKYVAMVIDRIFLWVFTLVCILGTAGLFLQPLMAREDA
Assay: Negative allosteric modulation of human nAChR alpha3beta4 expressed in HEK ts201 cells assessed as decrease in epibatidine-induced calcium mobilization up to 100 uM measured every 1.5 sec by fluorescence analysis
Format: cell-based
assay_readout: IC50

{"chemical_string": "O=C(CN1CCN(S(=O)(=O)c2ccccc2F)CC1)Nc1ccc(C(=O)O)cc1", "assay_readout": "IC50", "endpoint_result": "> 100 µM"}
{"chemical_string": "O=C(CN1CCN(S(=O)(=O)c2ccccc2F)CC1)Nc1ccn[nH]1", "assay_readout": "IC50", "endpoint_result": "> 100 µM"}
{"chemical_string": "O=C(CN1CCN(S(=O)(=O)c2cccnc2)CC1)Nc1ccn[nH]1", "assay_readout": "IC50", "endpoint_result": "> 100 µM"}

###

Target: Neuronal acetylcholine receptor; alpha3/beta4 (Homo sapiens, UniProt P30926+P32297)
Test: Negative allosteric modulation of human nAChR alpha3beta4 expressed in HEK ts201 cells assessed as inhibition of epibatidine-induced calcium mobilization measured every 1.5 sec by fluorescence analysis
Type: cell-based
assay_readout: log10(IC50) (log10 of the value in µM)

{"chemical_string": "COc1ccc(S(=O)(=O)N2CCN(CC(=O)Nc3ccccc3F)CC2)cc1", "system_under_test": "Neuronal acetylcholine receptor; alpha3/beta4 (Homo sapiens, UniProt P30926+P32297)", "endpoint_result": 1.19}
{"chemical_string": "COc1ccc(S(=O)(=O)N2CCN(CC(=O)Nc3ccc(F)cc3)CC2)cc1", "system_under_test": "Neuronal acetylcholine receptor; alpha3/beta4 (Homo sapiens, UniProt P30926+P32297)", "endpoint_result": 1.23}
{"chemical_string": "O=C(CN1CCN(S(=O)(=O)c2ccc(F)cc2)CC1)Oc1ccccc1-c1ccccc1", "system_under_test": "Neuronal acetylcholine receptor; alpha3/beta4 (Homo sapiens, UniProt P30926+P32297)", "endpoint_result": 1.38}
{"chemical_string": "O=C(CN1CCN(S(=O)(=O)c2ccccc2)CC1)Nc1ccccc1", "system_under_test": "Neuronal acetylcholine receptor; alpha3/beta4 (Homo sapiens, UniProt P30926+P32297)", "endpoint_result": 1.21}
{"chemical_string": "O=C(CN1CCN(S(=O)(=O)c2ccccc2F)CC1)Nc1ccc(F)cc1", "system_under_test": "Neuronal acetylcholine receptor; alpha3/beta4 (Homo sapiens, UniProt P30926+P32297)", "endpoint_result": 1.13}
{"chemical_string": "O=C(CN1CCN(S(=O)(=O)c2ccccc2F)CC1)Oc1ccccc1-c1ccccc1", "system_under_test": "Neuronal acetylcholine receptor; alpha3/beta4 (Homo sapiens, UniProt P30926+P32297)", "endpoint_result": 1.37}
{"chemical_string": "O=C(CN1CCN(S(=O)(=O)c2ccccc2)CC1)Nc1ccccc1F", "system_under_test": "Neuronal acetylcholine receptor; alpha3/beta4 (Homo sapiens, UniProt P30926+P32297)", "endpoint_result": 0.66}
{"chemical_string": "O=C(CN1CCN(S(=O)(=O)c2cccnc2)CC1)Nc1ccccc1F", "system_under_test": "Neuronal acetylcholine receptor; alpha3/beta4 (Homo sapiens, UniProt P30926+P32297)", "endpoint_result": 1.70}
{"chemical_string": "COc1ccc(NC(=O)CN2CCN(S(=O)(=O)c3cccnc3)CC2)cc1", "system_under_test": "Neuronal acetylcholine receptor; alpha3/beta4 (Homo sapiens, UniProt P30926+P32297)", "endpoint_result": 1.98}
{"chemical_string": "COc1ccc(NC(=O)CN2CCN(S(=O)(=O)c3ccccc3F)CC2)cc1", "system_under_test": "Neuronal acetylcholine receptor; alpha3/beta4 (Homo sapiens, UniProt P30926+P32297)", "endpoint_result": 1.28}
{"chemical_string": "COC(=O)c1ccc(NC(=O)CN2CCN(S(=O)(=O)c3ccccc3F)CC2)cc1", "system_under_test": "Neuronal acetylcholine receptor; alpha3/beta4 (Homo sapiens, UniProt P30926+P32297)", "endpoint_result": 1.05}

###

Target: Neuronal acetylcholine receptor; alpha4/beta2 (Homo sapiens, UniProt P17787+P43681)
Assay: Negative allosteric modulation of human nAChR alpha4beta2 expressed in HEK ts201 cells assessed as inhibition of epibatidine-induced calcium mobilization measured every 1.5 sec by fluorescence analysis
Type: cell-based
pIC50: −log10 of the molar value.
Label rule, in plain words: pIC50 of 5 and up is criterion met, under 5 is criterion not met.

{"chemical_string": "COc1ccc(S(=O)(=O)N2CCN(CC(=O)Nc3ccc(F)cc3)CC2)cc1", "label_class": "criterion not met"}
{"chemical_string": "O=C(CN1CCN(S(=O)(=O)c2ccccc2)CC1)Nc1ccccc1F", "label_class": "criterion met"}
{"chemical_string": "COc1ccc(NC(=O)CN2CCN(S(=O)(=O)c3ccccc3F)CC2)cc1", "label_class": "criterion not met"}
{"chemical_string": "O=C(CN1CCN(S(=O)(=O)c2cccnc2)CC1)Nc1ccn[nH]1", "label_class": "criterion not met"}
{"chemical_string": "O=C(CN1CCN(S(=O)(=O)c2ccccc2F)CC1)Oc1ccccc1-c1ccccc1", "label_class": "criterion not met"}
{"chemical_string": "O=C(CN1CCN(S(=O)(=O)c2cccnc2)CC1)Nc1ccccc1F", "label_class": "criterion not met"}

###

Target: Neuronal acetylcholine receptor; alpha4/beta2 (Homo sapiens, UniProt P17787+P43681)
Assay: Negative allosteric modulation of human nAChR alpha4beta2 expressed in HEK ts201 cells assessed as inhibition of epibatidine-induced calcium mobilization measured every 1.5 sec by fluorescence analysis
Type: cell-based
pIC50: −log10 of the molar value.

{"chemical_string": "COC(=O)c1ccc(NC(=O)CN2CCN(S(=O)(=O)c3ccccc3F)CC2)cc1", "system_under_test": "Neuronal acetylcholine receptor; alpha4/beta2 (Homo sapiens, UniProt P17787+P43681)", "pIC50": 4.91}
{"chemical_string": "O=C(CN1CCN(S(=O)(=O)c2ccc(F)cc2)CC1)Oc1ccccc1-c1ccccc1", "system_under_test": "Neuronal acetylcholine receptor; alpha4/beta2 (Homo sapiens, UniProt P17787+P43681)", "pIC50": 4.91}
{"chemical_string": "COc1ccc(S(=O)(=O)N2CCN(CC(=O)Nc3ccccc3F)CC2)cc1", "system_under_test": "Neuronal acetylcholine receptor; alpha4/beta2 (Homo sapiens, UniProt P17787+P43681)", "pIC50": 4.87}
{"chemical_string": "O=C(CN1CCN(S(=O)(=O)c2ccccc2F)CC1)Nc1ccc(F)cc1", "system_under_test": "Neuronal acetylcholine receptor; alpha4/beta2 (Homo sapiens, UniProt P17787+P43681)", "pIC50": 5.10}
{"chemical_string": "O=C(CN1CCN(S(=O)(=O)c2ccccc2)CC1)Nc1ccccc1", "system_under_test": "Neuronal acetylcholine receptor; alpha4/beta2 (Homo sapiens, UniProt P17787+P43681)", "pIC50": 5.02}
